// data source = PubChem BioAssay (Tox21)

experiment: qHTS RealTime-Glo MT Cell Viability Assay in HEK293 cells - 24 hour (AID 1224886); settings: RealTime-Glo luminescence; series mostly up to 76.8 µM; further: nearly all actives have a fitted effect of over 50% in size
Inconclusive results are not listed. Calls of active or inactive are those of the source. The call rests on the fitted dose curve; in most records, active means well fitted cell-killing curve with a large enough effect in the repeat runs; inconclusive means weak or mixed curves, or effect the other way; inactive means flat fitted curve, though single readings scatter.
Classes used: active, inactive

> print(dat)
                                    molecule  assigned.category
 1                   O=C1NS(=O)(=O)c2ccccc21           inactive
 2                Cn1c(=O)c2c(ncn2C)n(C)c1=O           inactive
 3               CN(C)CCOC(c1ccccc1)c1ccccc1           inactive
 4              O=C1c2c(O)cccc2Cc2cccc(O)c21           inactive
 5                              CC(=O)C(=O)O           inactive
 6  COc1ccc(C(Cl)=C(c2ccc(OC)cc2)c2ccc(OC)cc2)cc1           inactive
 7         Nc1ccc2c(c1)CN1C(=O)c3ccccc3C1=N2             active
 8                     CC12CCC(CC1)C(C)(C)O2           inactive
 9                   CCN(CC)C(=O)c1cccc(C)c1           inactive
10             CCc1nc(N)nc(N)c1-c1ccc(Cl)cc1           inactive
11                               NS(=O)(=O)O           inactive
12                   Nc1c2c(nc3ccccc13)CCCC2           inactive
13                            CC(=O)CCC(=O)O           inactive
14                 Cc1ncc([N+](=O)[O-])n1CCO           inactive
15  CC(=O)CC(c1ccccc1)c1c(O)c2ccccc2oc1=O (centres undefined)           inactive
16  COc1ccc2cc(S(=O)(=O)N[C@H](CC(=O)N[C@H](Cc3ccc(CN4[C@H](C)CCC[C@@H]4C)cc3)C(=O)N(C)C(C)C)c3ccc4c(c3)OCO4)ccc2c1             active
17  C1=CC2C3C=CC(C3)C2C1 (centres undefined)           inactive
18                   O=c1[nH]cc(F)c(=O)[nH]1           inactive
19       Cc1cc(C)nc(NS(=O)(=O)c2ccc(N)cc2)n1           inactive
20  OC[C@H]1O[C@H](O[C@]2(CCl)O[C@H](CCl)[C@@H](O)[C@@H]2O)[C@H](O)[C@@H](O)[C@H]1Cl           inactive
21  C=C1CC[C@H](O)C/C1=C\C=C1/CCC[C@]2(C)[C@@H]([C@H](C)CCCC(C)C)CC[C@@H]12             active
22  CN1[C@@H]2CC(OC(=O)[C@H](CO)c3ccccc3)C[C@H]1[C@@H]1O[C@@H]12 (some centres undefined)           inactive
23    C=C(C)C(=O)OCC(C)O (centres undefined)           inactive
24                            NC(=O)c1cccnc1           inactive
25  NC(=O)n1c(O)c(C(=O)c2cccs2)c2cc(Cl)ccc21           inactive
26        O=C(Nc1ncc([N+](=O)[O-])s1)c1cccs1           inactive
27  C1CCC(C(CC2CCCCN2)C2CCCCC2)CC1 (centres undefined)             active
28           O=C1O[C@H]([C@@H](O)CO)C(O)=C1O           inactive
29                          O=CC(=O)c1ccccc1           inactive

---

Potency reference
assay: qHTS RealTime-Glo MT Cell Viability Assay in HEK293 cells - 40 hour (AID 1224874); settings: RealTime-Glo luminescence; further: potency means the concentration at half of the fitted maximal effect; nearly all actives have a fitted effect of over 50% in size
Records with an inconclusive call do not appear. Active and inactive are the calls of the source. Calls come from the whole dose curve; as a rule, active = well fitted cell-killing curve with a large enough effect in the repeat runs; inconclusive = weak or mixed curves, or effect the other way; inactive = flat fitted curve, though single readings scatter.
observed_property: Potency

> print(dat)
                                   compound  observed.property        data.value
1  C=C1CC[C@H](O)C/C1=C\C=C1/CCC[C@]2(C)[C@@H]([C@H](C)CCCC(C)C)CC[C@@H]12            Potency  43.2 µM (active)
2  COc1ccc2cc(S(=O)(=O)N[C@H](CC(=O)N[C@H](Cc3ccc(CN4[C@H](C)CCC[C@@H]4C)cc3)C(=O)N(C)C(C)C)c3ccc4c(c3)OCO4)ccc2c1            Potency  26.1 µM (active)
3  CCN(Cc1c(F)cccc1Cl)c1c([N+](=O)[O-])cc(C(F)(F)F)cc1[N+](=O)[O-]            Potency  54.9 µM (active)
4  C1CCC(C(CC2CCCCN2)C2CCCCC2)CC1 (centres undefined)            Potency  10.7 µM (active)

---

assay: qHTS assay to identify small molecule antagonists of the retinoid acid receptor (RAR) signaling pathway - cell viability counter screen (AID 1159551); settings: C3RL4 cells viability, ATP luminescence (CellTiter-Glo), 6 h; series mostly up to 92.4 µM; further: nearly all actives have a fitted effect of over 35% in size
Inconclusive results are not listed. Calls of active or inactive are those of the source. The call rests on the fitted dose curve; in most records, active means well fitted cell-killing curve with a large enough effect in the repeat runs; inconclusive means weak or mixed curves, or effect the other way; inactive means flat fitted curve, though single readings scatter.
Possible outcomes: active, inactive

> print(dat)
                                    molecule  assigned.category
 1  NC(=O)n1c(O)c(C(=O)c2cccs2)c2cc(Cl)ccc21           inactive
 2                   O=C1NS(=O)(=O)c2ccccc21           inactive
 3  CC(C)NCC(O)c1ccc(O)c(O)c1 (stereo not given)           inactive
 4           C[C@](N)(Cc1ccc(O)c(O)c1)C(=O)O           inactive
 5       Cc1cc(C)nc(NS(=O)(=O)c2ccc(N)cc2)n1           inactive
 6                        CCCCCCc1ccc(O)cc1O           inactive
 7        CCCCC(CC)C(=O)O (stereo not given)           inactive
 8  CC1(C)O[C@@H]2C[C@H]3[C@@H]4CCC5=CC(=O)C=C[C@]5(C)[C@@]4(F)[C@@H](O)C[C@]3(C)[C@]2(C(=O)CO)O1           inactive
 9                                 CCOC(N)=O           inactive
10                 Cc1ncc([N+](=O)[O-])n1CCO           inactive
11  O=S1(=O)OC(c2ccc(O)cc2)(c2ccc(O)cc2)c2ccccc21           inactive
12                   Nc1c2c(nc3ccccc13)CCCC2           inactive
13           COc1ccc(CN(CCN(C)C)c2ccccn2)cc1           inactive
14                Nc1ccc(O)c([N+](=O)[O-])c1           inactive
15                      CN1CCC[C@H]1c1cccnc1           inactive
16                CS(=O)(=O)OCCCCOS(C)(=O)=O           inactive
17  CC(C)c1c(C(=O)Nc2ccccc2)c(-c2ccccc2)c(-c2ccc(F)cc2)n1CC[C@@H](O)C[C@@H](O)CC(=O)O           inactive
18         Nc1ccc2c(c1)CN1C(=O)c3ccccc3C1=N2             active
19                                 NC1CCCCC1           inactive
20             CCc1nc(N)nc(N)c1-c1ccc(Cl)cc1           inactive

---

test: A CellTox Green Cytotoxicity Assay to monitor cytotoxicity in HepG2 cells - 40 hour (AID 1224879); settings: CellTox Green fluorescence; series mostly up to 76.8 µM; further: nearly all actives have a fitted effect of over 40% in size
Results filed as inconclusive are left out. The source made the active and inactive calls. Calls come from the whole dose curve; as a rule, active = well fitted activation curve with a large enough effect in the repeat runs; inconclusive = weak or mixed curves; inactive = flat fitted curve, though single readings scatter.
Labels: active, inactive

> print(dat)
                                    molecule  assigned.category
 1  NC(=O)n1c(O)c(C(=O)c2cccs2)c2cc(Cl)ccc21           inactive
 2                            CC(=O)CCC(=O)O           inactive
 3  CN(N=O)C(=O)N[C@@H]1[C@@H](O)[C@H](O)[C@@H](CO)O[C@@H]1O           inactive
 4         Nc1ccc2c(c1)CN1C(=O)c3ccccc3C1=N2             active
 5                CS(=O)(=O)OCCCCOS(C)(=O)=O           inactive
 6               CN(C)CCOC(c1ccccc1)c1ccccc1           inactive
 7  C1=CC2C3C=CC(C3)C2C1 (stereo unspecified)           inactive
 8  O=S1(=O)OC(c2ccc(O)cc2)(c2ccc(O)cc2)c2ccccc21           inactive
 9  CN1[C@@H]2CC(OC(=O)[C@H](CO)c3ccccc3)C[C@H]1[C@@H]1O[C@@H]12 (stereo partly specified)           inactive
10           O=C1O[C@H]([C@@H](O)CO)C(O)=C1O           inactive
11                      CCOc1ccc(NC(C)=O)cc1           inactive
12  C=C1CC[C@H](O)C/C1=C\C=C1/CCC[C@]2(C)[C@@H]([C@H](C)CCCC(C)C)CC[C@@H]12           inactive
13  CCCCCCCC(=O)OCC(COC(=O)CCCCCCC)OC(=O)CCCCCCC           inactive
14                            NC(=O)c1cccnc1           inactive
15                       C=CCc1ccc(O)c(OC)c1           inactive
16                              Cc1cccc(C)c1           inactive
17  COc1ccc(C(Cl)=C(c2ccc(OC)cc2)c2ccc(OC)cc2)cc1           inactive
18           C[C@](N)(Cc1ccc(O)c(O)c1)C(=O)O           inactive
19               CN(C)C(=O)Nc1ccc(Cl)c(Cl)c1           inactive
20  CN(C)CCOC(C)(c1ccccc1)c1ccccn1 (stereo unspecified)           inactive
21      CCCCC(CC)C(=O)O (stereo unspecified)           inactive
22  COc1ccc2c(c1)c(CC(=O)O)c(C)n2C(=O)c1ccc(Cl)cc1           inactive
23  CC(C)C(=O)Nc1ccc([N+](=O)[O-])c(C(F)(F)F)c1           inactive
24    O=c1[nH]cnc2c1ncn2[C@H]1CC[C@@H](CO)O1           inactive
25                      CN1CCC[C@H]1c1cccnc1           inactive
26   CC(=O)Nc1c(I)c(NC(C)=O)c(I)c(C(=O)O)c1I           inactive
